Test system: IGROV-1
ASSAY_PROTOCOL: NCI tumour cell line growth inhibition, 48 h
Activity calls are given as the source filed them. Cut-off read from the data, not from the text of the source: active = GI50 up to about 1.1 µM and inactive = higher.
One label from this list, please: true (1) (active), false (0) (inactive)

{"columns": ["COMPOUND", "DISCRETE_LABEL"],
 "data": [
  ["CCN(CC)C(=S)SNCc1ccc(S(N)(=O)=O)cc1", "false (0)"],
  ["COC(=O)c1sc(C(=O)OC)c2c1C[S+]([O-])C2", "false (0)"],
  ["Cc1cc(C)c(C#N)c(SC(=S)NC(=O)c2ccccc2)n1", "false (0)"],
  ["COc1cc(/C=C(/C#N)C(N)=O)ccc1O", "false (0)"]
]}

Hey, what did the test say about COC(=O)C1c2cc3c(c(O)c2CCC1(C)O)C(=O)c1c(O)cc2c(c1C3=O)OC1OC2(C)C(O)C(N(C)C)C1O (stereo unspecified) ? true (1)

Input `CC1=C(c2cc(C(=O)Nc3cccc(C(F)(F)F)c3)ncn2)Sc2ccccc2N1` false (0)

Input `COC(=O)c1cc2c(o1)Sc1ccccc1NC2=O` false (0)

Input `CC1(C)S[C@@H]2[C@H](N3C(=O)c4ccccc4C3=O)CN2[C@H]1NC(=O)N[C@@H]1N2C[C@@H](N3C(=O)c4ccccc4C3=O)[C@H]2SC1(C)C` false (0)

---

Test system: HCT-15
Label Yes when GI50 is strictly below 20 µM; otherwise label No.

Example entries begin here.
{"columns": ["COMPOUND", "DISCRETE_LABEL"],
 "data": [
  ["O=C1/C(=C/c2ccccc2S)N=C(c2ccccc2)N1c1nc2ccc(Sc3ccccc3)cc2[nH]1", "No"],
  ["O=c1c2ccccc2nc2n1-c1ccccc1SC2", "No"],
  ["Cn1c(=O)c2c(ncn2CCNC(CO)C(O)c2ccc([N+](=O)[O-])cc2)n(C)c1=O (stereo not drawn)", "No"],
  ["Cc1cc2c(cc1Cl)Sc1nnc(C)n1S2(=O)=O", "Yes"],
  ["CC(=O)CCC[C@@H](C)[C@@H]1O[C@H]([C@@]2(C)CCC(=O)O2)C[C@H]2C(CSc3ccccc3)C(=O)O[C@@H]12 (stereo partly drawn)", "Yes"],
  ["C[n+]1cn(C2=C([N-]S(=O)(=O)c3ccccc3)C(=O)c3ccccc3C2=O)c2ccccc21", "No"]
]}

Okay, next one:
Below 20 µM on GI50? Entry NCC(=O)OCN1C(=O)C2C3C=CC(C2C1=O)C1C2C(=O)N(COC(=O)CN)C(=O)C2C31 (stereo not drawn) Yes

---

# GI50 values compiled below
Tested on: RXF 393
ASSAY_PROTOCOL: NCI tumour cell line growth inhibition, 48 h
Calls of active or inactive are those of the source. Cut-off read from the data, not from the text of the source: active = GI50 up to about 1.1 µM and inactive = higher.

Solved entries (count: 3):
{"columns": ["COMPOUND", "SYSTEM_NAME", "READOUT_VALUE"],
 "data": [
  ["CCc1cc2c(cc1C(=O)CCC(=O)O)CC1(C2)Cc2cc(CC)c(C(=O)CCC(=O)O)cc2C1", "RXF 393", "> 100 µM (inactive)"],
  ["CC1=C(C)SC(=C2Sc3c(n(C)c(=O)n(C)c3=O)S2)S1", "RXF 393", "48.4 µM (inactive)"],
  ["COC(=O)CCC(NC(=O)C(C)NC(=O)COC1C(O)C(OC(=O)CCNc2c3ccccc3nc3cccc([N+](=O)[O-])c23)OC(OCc2ccccc2)C1NC(C)=O)C(N)=O (centres undefined)", "RXF 393", "3.05 µM (inactive)"]
]}

Entry under review: `CCOC(=O)C1=C(Nc2ccc(NC3=C(C(=O)OCC)C(=O)CS3)cc2)SCC1=O` . Reported GI50? 16 µM (inactive)

Input `COc1nc(N)c(C(=O)CCl)c(=O)n1C` 7.35 µM (inactive)

Input `Oc1ccccc1CNCc1nc2ccccc2[nH]1` 75 µM (inactive)

Input COC(=O)C(Cc1nc2ccccc2nc1O)C(=O)C(=O)Nc1ccc([N+](=O)[O-])cc1[N+](=O)[O-] (centres undefined) 18.3 µM (inactive)

---

Test system: PC-3
ASSAY_PROTOCOL: NCI tumour cell line growth inhibition, 48 h
Activity calls are given as the source filed them. No stated cut-off is given here; in the data, active = GI50 up to about 1.1 µM and inactive = higher.
# GI50 values compiled below

Solved entries (count: 5):
{"columns": ["COMPOUND", "READOUT_VALUE"],
 "data": [
  ["CCc1n[nH]c(=O)n1NC(=O)CCCC(=O)O", "> 100 µM (inactive)"],
  ["O=C(Cc1ccc(Cl)cc1)Nc1ccc2oc(-c3ccccc3)nc2c1", "> 100 µM (inactive)"],
  ["O=C(/C=C/c1ccc2ccccc2c1)NCc1ccc(C(=O)NCc2ccccc2)cc1", "> 100 µM (inactive)"],
  ["COC1(CC[C@@H](C)COC2OC(CO)C(O)C(O)C2O)OC2C[C@H]3[C@@H]4CC[C@H]5C[C@@H](OC6OC(CO)C(OC7OC(CO)C(O)C(O)C7O)C(O)C6OC6OC(C)C(O)C(O)C6O)[C@H](O)C[C@]5(C)[C@H]4CC[C@]3(C)C2[C@@H]1C (stereo partly drawn)", "1.87 µM (inactive)"],
  ["CCOC(=O)CSc1[nH]c2nc(C)nc(Cl)c2c1C#N", "> 10 µM (inactive)"]
]}

Fill in the recorded GI50 for this compound, with PC-3 as test system: `Nc1cc(C(=O)O)nc(O)n1` > 100 µM (inactive)

Input `CC(=O)OC(=C(C#N)C#N)c1nccnc1C(C)=O` > 20 µM (inactive)

Input C[C@]12c3c4cc(NC(=O)C(=O)NCc5ccc(-c6ccccn6)nc5)cc3Oc3cc(NC(=O)C(=O)NCc5ccc(-c6ccccn6)nc5)cc(c31)OC1C=C(NC(=O)C(=O)NCc3ccc(-c5ccccn5)nc3)C=C(O4)C12 (stereo partly drawn) 61.5 µM (inactive)

---

Tested on: UACC-257
ASSAY_PROTOCOL: NCI tumour cell line growth inhibition, 48 h
Activity calls are given as the source filed them. Cut-off read from the data, not from the text of the source: active = GI50 up to about 1.1 µM and inactive = higher.
One label from this list, please: active, inactive

{"columns": ["COMPOUND", "DISCRETE_LABEL"],
 "data": [
  ["COc1cc2c(cc1OCCCNC(=O)c1cc3ccccc3[nH]1)N=C[C@@H]1CCCN1C2=O", "active"],
  ["O=C(Cn1cc(-c2ccccc2)nn1)NC1CCCC1", "inactive"]
]}

Okay, next one:
Hey, what did the test say about `CC(C)[C@H](NC(=O)[C@H](N)Cc1ccc(N(CCCl)CCCl)cc1)C(=O)O` ? inactive

---

System: OVCAR-5
ASSAY_PROTOCOL: NCI tumour cell line growth inhibition, 48 h
Active and inactive are the calls of the source. Cut-off read from the data, not from the text of the source: active = GI50 up to about 1.1 µM and inactive = higher.
One label from this list, please: 1.0 (active), 0.0 (inactive)

{"columns": ["COMPOUND", "SYSTEM_NAME", "DISCRETE_LABEL"],
 "data": [
  ["COC(=O)CCC(NC(=O)C(C)NC(=O)COC1C(O)C(OC(=O)CCNc2c3ccccc3nc3cccc([N+](=O)[O-])c23)OC(OCc2ccccc2)C1NC(C)=O)C(N)=O (configuration not stated)", "OVCAR-5", 0.0],
  ["N/C(=N\\O)N/N=C\\c1c(O)cc(O)cc1O", "OVCAR-5", 0.0]
]}

Hey, what did the test say about COc1cc2c(cc1OC)C1Cc3sccc3CN1CC2 (configuration not stated) ? 0.0

Input COC(=O)C(=O)C(C(=O)C(=O)Nc1nc2ccc(C)cc2s1)c1nc2ccc([N+](=O)[O-])cc2nc1O (configuration not stated) 0.0

Input `CCOC(=O)NC(=S)c1ccc(O)c2ccccc12` 0.0

Input Clc1c(Cl)c(Cl)c2nn(C3CCCO3)nc2c1Cl (configuration not stated) 0.0

Input `CC(C)(C)c1ccc(O)c(C(c2ccc([N+](=O)[O-])cc2)c2cc(C(C)(C)C)ccc2O)c1` 0.0

Input `O=C(O)c1c(O)c2cc(Br)ccc2oc1=O` 0.0

Input C/C(Cc1ccc2c(c1)OCO2)=N\NC(=O)C(C)Sc1nnc(SC(C)C(=O)N/N=C(\C)Cc2ccc3c(c2)OCO3)s1 (configuration not stated) 0.0

Input COc1ccccc1NC(=O)C(CC(C(=O)Nc1ccccc1OC)/C(C)=N/Nc1ccc([N+](=O)[O-])cc1[N+](=O)[O-])/C(C)=N/Nc1ccc([N+](=O)[O-])cc1[N+](=O)[O-] (configuration not stated) 0.0

Input `CCN(CC)c1ccc(/N=N\c2ccc(-c3nc4ccc[n+](C)c4s3)cc2)cc1` 0.0

Input CC(C)C1OC(N)=C(C#N)C1(C#N)C#N (configuration not stated) 0.0

Input `Cc1cc(C2CCCCC2)n(O)c(=O)c1` 0.0

Input [N-]=[N+]=NCC1OCC(O)C(OCc2ccccc2)C1OCc1ccccc1 (configuration not stated) 0.0

Input `CCOC(=O)c1c(N2CCCC2)nsc1Nc1ccc(F)cc1` 0.0

Input `COc1ccccc1N1CCN(Cn2c(=O)oc3cccnc32)CC1` 0.0

Input `Cc1cccc(Cl)c1NC(N)=S` 0.0
